Target: Beta-lactamase (Escherichia coli K-12, UniProt P00811)
Sequence (P00811 whole entry): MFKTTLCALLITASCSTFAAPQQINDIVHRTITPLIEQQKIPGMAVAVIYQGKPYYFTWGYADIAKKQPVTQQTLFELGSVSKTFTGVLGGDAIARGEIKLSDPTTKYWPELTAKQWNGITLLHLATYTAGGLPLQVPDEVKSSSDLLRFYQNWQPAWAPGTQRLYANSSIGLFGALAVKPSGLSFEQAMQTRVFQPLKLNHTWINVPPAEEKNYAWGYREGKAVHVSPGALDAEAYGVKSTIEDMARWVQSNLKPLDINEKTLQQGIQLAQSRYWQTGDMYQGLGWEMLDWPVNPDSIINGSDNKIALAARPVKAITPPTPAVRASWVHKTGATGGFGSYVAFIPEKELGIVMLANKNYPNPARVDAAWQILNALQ
Test: Inhibition of Escherichia coli AmpC assessed as nitrocefin hydrolysis by UV-Vis spectrophotometry
Quantity Measured: Ki (mM)

{"Mol Smiles": "O=C(O)c1cccs1", "Ki / mM": 40}

A = O=C(O)c1ccc(NS(=O)(=O)c2ccsc2C(=O)O)c(O)c1
B = CS(=O)(=O)Nc1ccc(C(=O)O)cc1
Which has the higher Ki, A or B ? Record your answer as the label of the chosen record.
B
